Consider the following compounds; for each one, report its melting point.

Hi, could you look up melting point for each item in my list?
1. CCN1CCc2ccc(Nc3ncc(Cl)c(NCCC(=O)NC)n3)cc2CC1
2. CC(C)COC(=O)N[C@@H](Cc1ccccc1)C(=O)CSCc1ccco1
3. CC(C)N1CCN(C(=O)c2cc([N+](=O)[O-])cc(C(F)(F)F)c2)CC1
4. COc1ccc(-c2ccc(-c3ccc(F)cc3)nc2-c2ccc(OC)cc2)cc1
5. CCOC(=O)c1cccc(-c2nc(-c3ccc(OCC)cc3)cs2)c1
6. Cc1ncccc1-c1ccc(OC2SCC(O)C(O)C2O)cn1 (configuration not stated)

["206 °C", "58 to 59 °C", "70.7 °C", "118 to 120 °C", "108 to 110 °C", "167 to 168 °C"]

// for each compound below, give its melting point
1. O=C(Nc1cccc(Br)c1)NC1C(=O)N(CC23CC4CC(CC(C4)C2)C3)c2ccccc2N(c2ccccc2)C1=O (configuration not stated)
2. CC(CC1CCCCC1)C(=O)COS(=O)(=O)c1ccccc1 (configuration not stated)
3. CS(C)=NS(=O)(=O)c1ccc(N2CC(CO)OC2=O)cc1 (configuration not stated)
4. CCN1CCNC(=O)C1c1ccc(Nc2nc(Br)cn(CC)c2=O)cc1 (configuration not stated)
5. CC(C)(C)c1ccc(S(=O)(=O)N2c3ccccc3C[C@H]2C(=O)NCc2ccc(Cl)cc2)cc1

1. 254 °C
2. 51 to 52 °C
3. 162 to 164 °C
4. 152 to 153 °C
5. 69 °C

Give one value of melting point per listed compound.
1. CC(C)(CO)Cc1cccc(C(O)c2cccc(CC(C)(C)CO)c2)c1
2. OCCc1ccc(Nc2ncc3c(n2)-c2ccccc2C(c2ccc(Cl)cc2)C3)cc1 (configuration not stated)
3. Nc1cc(F)c(N2CCNCC2)cc1Cl
4. CN1CCC(c2c(O)cc(O)c3c(=O)cc(Sc4ccccc4)oc23)C(O)C1 (configuration not stated)
5. CN1Cc2c(C(=O)OCCO)ncn2-c2ccc(F)cc2C1=O
6. COc1ccc(NN=C(Sc2ccc(Cl)c(Cl)c2)C(C)=O)cc1
7. CN(C)S(=O)(=O)c1ccccc1Cl

1. 98 to 99 °C
2. 163 to 164 °C
3. 110 °C
4. 82 °C
5. 202 to 204 °C
6. 109 to 113 °C
7. 49 to 51 °C
